ATTRIBUTE MEASURED: pIC50
// returns pIC50 (minus log10 of molar concentration), number only

UniProtKB P30551 pIC50 of Cc1cccc(NC(=O)NC2N=C(c3ccccn3)c3ccccc3N(CC(=O)c3ccccc3C)C2=O)c1 (stereo unspecified) is 6.01

Entry Cc1cccc(NC(=O)NC2N=C(c3ccccn3)c3ccccc3N(CC(=O)C3CCCC3)C2=O)c1 (stereo unspecified) , tested on UniProtKB P30551, has a reported pIC50 of 5.59

UniProtKB P30551 pIC50 of Cc1cccc(NC(=O)NC2N=C(c3ccncc3)c3ccccc3N(CC(=O)c3ccccc3C)C2=O)c1 (stereo unspecified) is 6.17

# value of pIC50, UniProtKB P30551, item Cc1cccc(NC(=O)NC2N=C(c3cccnc3)c3ccccc3N(CC(=O)C3CCCC3)C2=O)c1 (stereo unspecified) = 7.10

Entry Cc1cccc(NCNC2N=C(c3nccs3)c3ccccc3N(CC(=O)C(C)(C)C)C2=O)c1 (stereo unspecified) ; assay system UniProtKB P30551; pIC50 recorded at 6.36

So the reported pIC50 for Cc1cccc(NCNC2N=C(c3ccn[nH]3)c3ccccc3N(CC(=O)C(C)(C)C)C2=O)c1 (stereo unspecified) , on UniProtKB P30551, turned out to be 6.98
